test: Biodistribution in ICR mouse brain at 680 mg/kg, po after 2 hrs by HPLC analysis; assay type: ADME, organism-based; parameters: dose 680 mg/kg, route oral; conditions: read-out: Drug uptake
assay-endpoint: concentration at 2 h (ng/mL)

INSERT INTO measurements (smiles_text, unit_spec, readout_value) VALUES
  ('CCCC[C@H](OC(=O)CN1CCN(C)CC1)c1ccccc1C(=O)O[C@H]1CO[C@H]2[C@@H]1OC[C@H]2OC(=O)c1ccccc1[C@H](CCCC)OC(=O)CN1CCN(C)CC1', 'ng/mL', 174);

====

assay: Biodistribution in ICR mouse brain at 680 mg/kg, po after 8 hrs by HPLC analysis; assay type: ADME, organism-based; set-up: dose 680 mg/kg, route oral; settings: read-out: Drug uptake
assay-endpoint: concentration at 8 h (ng/mL)

INSERT INTO results (smiles_text, unit_spec, readout_value) VALUES
  ('CCCC[C@H](OC(=O)CN1CCN(C)CC1)c1ccccc1C(=O)O[C@H]1CO[C@H]2[C@@H]1OC[C@H]2OC(=O)c1ccccc1[C@H](CCCC)OC(=O)CN1CCN(C)CC1', 'ng/mL', 16.7);

====

assay: Biodistribution in ICR mouse brain at 680 mg/kg, po after 4 hrs by HPLC analysis; assay type: ADME, organism-based; design: dose 680 mg/kg, route oral; conditions: read-out: Drug uptake
assay-endpoint: concentration at 4 h (ng/mL)

INSERT INTO results (smiles_text, unit_spec, readout_value) VALUES
  ('CCCC[C@H](OC(=O)CN1CCN(C)CC1)c1ccccc1C(=O)O[C@H]1CO[C@H]2[C@@H]1OC[C@H]2OC(=O)c1ccccc1[C@H](CCCC)OC(=O)CN1CCN(C)CC1', 'ng/mL', 54.3);

====

test: Plasma concentration in ICR mouse at 680 mg/kg, po after 1 hrs by HPLC analysis; type: ADME, organism-based; parameters: dose 680 mg/kg, route oral
assay-endpoint: concentration at 1 h (ng/mL)

INSERT INTO results (smiles_text, readout_value) VALUES
  ('CCCC[C@H](OC(=O)CN1CCN(C)CC1)c1ccccc1C(=O)O[C@H]1CO[C@H]2[C@@H]1OC[C@H]2OC(=O)c1ccccc1[C@H](CCCC)OC(=O)CN1CCN(C)CC1', 241);

====

test: Aqueous solubility of the compound after 5 hrs by UV-spectrophotometric analysis; type: physicochemical; settings: water
assay-endpoint: solubility at 5 h (mg/mL)

INSERT INTO assay_data (smiles_text, readout_value) VALUES
  ('CCCC[C@H](OC(=O)CN1CCN(C)CC1)c1ccccc1C(=O)O[C@H]1CO[C@H]2[C@@H]1OC[C@H]2OC(=O)c1ccccc1[C@H](CCCC)OC(=O)CN1CCN(C)CC1', 11.2);

====

assay: Plasma concentration in ICR mouse at 680 mg/kg, po after 0.5 hrs by HPLC analysis; assay type: ADME, organism-based; parameters: dose 680 mg/kg, route oral
assay-endpoint: concentration at 0.5 h (ng/mL)

INSERT INTO results (smiles_text, readout_value) VALUES
  ('CCCC[C@H](OC(=O)CN1CCN(C)CC1)c1ccccc1C(=O)O[C@H]1CO[C@H]2[C@@H]1OC[C@H]2OC(=O)c1ccccc1[C@H](CCCC)OC(=O)CN1CCN(C)CC1', 320);
